Reported values of EC50 for individual entries
Tested on: THP-1 viability, CellTiter-Glo luminescence, 72 h
Experiment: THP-1 cell cytotoxicity, dose response, cytotoxicity control for Salmonella PhoP regulon inhibitors, S. typhimurium screen hits (AID 2253)
attribute_measured: EC50

# molecule, experimental_value
rows = [
    ("C1CCC(C(CC2CCCCN2)C2CCCCC2)CC1 (stereo unspecified)", "5.45 µM"),
    ("OC(COc1ccc2ccccc2c1Br)Cn1ccnc1 (stereo unspecified)", "43.9 µM"),
    ("O=C(O)CSc1cc(NS(=O)(=O)c2cccc([N+](=O)[O-])c2)c2ccccc2c1O", "8.07 µM"),
    ("C/C(=N\\Nc1nc2ccccc2[nH]1)c1ccccn1", "0.92 µM"),
    ("O=C1c2cccc(OCC(=O)N3N=C(c4cccs4)CC3c3ccc(F)cc3)c2CCN1Cc1cccnc1 (stereo unspecified)", "47.9 µM"),
    ("COc1ccccc1-c1cc(C(=O)Nc2cc(C)nn2-c2ccccc2)no1", "25.6 µM"),
    ("O=C(Nc1ccc(S(=O)(=O)N2CCCC2)cc1)c1ccc(CN2CCc3ccccc3C2)cc1", "26.5 µM"),
    ("Cc1ccc(Nc2cc(C)c3ccc(O)cc3n2)cc1C", "17 µM"),
    ("O=C(NC(c1ccc(Cl)cc1)c1c(O)ccc2ccccc12)c1ccccc1 (stereo unspecified)", "8.91 µM"),
    ("C=CS(=O)(=O)c1ccc(Oc2ccc(S(=O)(=O)C=C)cc2)cc1", "1.4 µM"),
    ("CN(C)C=NC(=O)c1[nH]c2ccc(Cl)cc2c1-c1ccccc1", "13.6 µM"),
    ("CCCCCCC(=O)N(O)C1CC(=O)N(c2ccc(C)cc2)C1=O (stereo unspecified)", "30.6 µM"),
    ("C/C(=N\\N=C(N)N)c1ccc(Cl)c(Cl)c1", "11.2 µM"),
    ("Nc1cccc2nc3ccccc3cc12", "4.25 µM"),
    ("Oc1cccc(/C=N/NC(=S)Nc2cccnc2)c1O", "4.11 µM"),
    ("CC1CCC(C(C)C)C(OC(=O)Cn2c(COc3ccccc3)[n+](C)c3ccccc32)C1 (stereo unspecified)", "2.6 µM"),
    ("C#CCOCCOCCOCCNc1nc(N2CCN(C(=O)CCCCCCCCCCNC(=O)[C@H](CO)n3cc(CCCCCN)nn3)CC2)nc(N2CCN(C(=O)CCCCCCCCCCNC(=O)[C@H](CCCN=C(N)N)n3cc(C[C@@H](C)CC)nn3)CC2)n1", "8.9 µM"),
    ("Cc1cc(O)ccc1Nc1nc2ccccc2nc1Nc1ccc(O)cc1C", "24.4 µM"),
    ("COc1cccc(Cn2cnc3c(NS(=O)(=O)c4cccc(Cl)c4Cl)c(C)c(C)cc32)c1", "40.4 µM"),
    ("O=C(Cc1ccccc1)Nc1cccc(N2C(=O)C=CC2=O)c1", "16.1 µM"),
    ("Cc1cc(/C=N/NC(N)=S)c(C)n1-c1ccc(Cl)c(Cl)c1", "19.8 µM"),
]

###

Reported values of EC50 for individual entries
Test system: THP-1 viability, CellTiter-Glo luminescence, 72 h
Experiment: THP-1 cell cytotoxicity, dose response, cytotoxicity control for Salmonella PhoP regulon inhibitors, S. typhimurium screen hits (AID 2253)
attribute_measured: EC50

# molecule, attribute_measured, experimental_value
data = [
    ("NC1=NC[C@H](Cc2ccc(O)cc2)N1CCCCC1CCCCC1", "EC50", "2.63 µM"),
    ("CCN(CC)CCOc1ccc2c(c1)C(=NNC(=O)c1ccccn1)c1cc(OCCN(CC)CC)ccc1-2", "EC50", "3.57 µM"),
    ("N#CC(C#N)=c1ccc2c(c1)NC1(CCCCC1)N=2", "EC50", "4.08 µM"),
    ("C[CH2][Hg][S]c1ccccc1C(=O)O", "EC50", "0.71 µM"),
    ("CN(C)S(=O)(=O)c1cccc(NC(=S)N/N=C/c2cc(Br)ccc2O)c1", "EC50", "0.65 µM"),
    ("NC(N)=NN=C1CCCCCCCCCCC1", "EC50", "7.67 µM"),
    ("O=S1(=O)Nc2c(ccc3cccnc23)-c2ccccc21", "EC50", "0.69 µM"),
    ("Oc1c(CN2CCc3ccccc3C2)cc(Cl)c2cccnc12", "EC50", "8.71 µM"),
    ("CCCCCCCOC(=O)C[N+](C)(C)CCOC1CC2CCC1(C)C2(C)C (configuration not stated)", "EC50", "2.07 µM"),
    ("O=C(NNC(=O)c1cnccn1)c1ccc(Cl)cc1", "EC50", "24.5 µM"),
    ("Clc1cc(Br)ccc1OCCCNCc1ccccc1", "EC50", "22.8 µM"),
    ("O=[N+]([O-])c1cc(Cl)c2cccnc2c1O", "EC50", "27.7 µM"),
    ("Cc1sc2ncnc(N/N=C/c3ccccc3O)c2c1C", "EC50", "0.51 µM"),
    ("O=C(c1ccccc1)c1c2c(cc3sc4ccccc4[n+]13)-c1cccc3cccc-2c13", "EC50", "1.28 µM"),
    ("O=C(Nc1cccc(Cl)c1)C1C2CCC3C(CCC21)C3(Cl)Cl (configuration not stated)", "EC50", "27.2 µM"),
    ("O=S1(=O)CCC(NC(=S)SCCOc2ccccc2)C1 (configuration not stated)", "EC50", "16.2 µM"),
    ("O=C(C[n+]1cc(-c2ccccc2)n2c1CCCCC2)c1ccc(Cl)cc1", "EC50", "28.9 µM"),
    ("CC(C)(C)c1nn(-c2ccccc2)c2[nH]c(=O)c(CNCc3ccco3)cc12", "EC50", "49.6 µM"),
    ("Cc1cc(C(=O)NNC(=S)NC(=O)/C=C/c2ccccc2Cl)n[nH]1", "EC50", "23.6 µM"),
    ("CCCC(=O)NC(c1ccccc1)c1ccc2cccnc2c1O (configuration not stated)", "EC50", "0.59 µM"),
    ("Cc1ccc(Nc2cc(C)c3c(O)cccc3n2)cc1C", "EC50", "15.2 µM"),
    ("CCOC(=O)c1sc(NC(=O)Nc2ccc(Cl)cc2)cc1C", "EC50", "10.3 µM"),
    ("Nc1nc2ccccc2n1CCOc1ccccc1Cl", "EC50", "12.8 µM"),
    ("O=C(Cn1nc(CNc2ccc(Cl)cc2)[n+]2c1CCCCC2)c1ccc(Br)cc1", "EC50", "11.6 µM"),
    ("Cc1cccc(Sc2c([N+](=O)[O-])ncn2C)c1", "EC50", "32 µM"),
    ("COc1ccc2[nH]c3c(C)c4ccncc4c(C)c3c2c1", "EC50", "1.27 µM"),
    ("O=C(Oc1c(Cl)cc(Cl)c2cccnc12)c1ccco1", "EC50", "11.5 µM"),
    ("CN(O)/C=c1/ccc2c(n1)C(=O)C=CC=2", "EC50", "23.3 µM"),
    ("CCCCC1(CCCC)C(=O)NC(=Nc2cccc(C)c2)NC1=O", "EC50", "39.1 µM"),
    ("O=CN/N=C/c1c(O)ccc2ccccc12", "EC50", "5.18 µM"),
    ("Clc1ccc(Cl)c(OCCCCNCc2ccccc2)c1", "EC50", "27.4 µM"),
    ("O=C(Cc1cccs1)Nc1cccc(-c2nc3cc4ccccc4cc3[nH]2)c1", "EC50", "12.5 µM"),
    ("NCCCC[C@H]1CN=C(N)N1CCC12CC3CC(CC(C3)C1)C2", "EC50", "33.1 µM"),
    ("O=c1[nH][nH]c(-c2ccccc2O)c1C(C[N+](=O)[O-])c1ccc(Br)cc1 (configuration not stated)", "EC50", "16 µM"),
    ("OC1(c2cccc(C(F)(F)F)c2)CCN(c2ncnc3c2[nH]c2ccccc23)CC1", "EC50", "17.6 µM"),
    ("COc1ccc(/C=C2\\CN(Cc3ccccc3)C/C(=C\\c3ccc(OC)cc3)C2=O)cc1", "EC50", "12.7 µM"),
    ("Cc1ccnc(NC(c2cccnc2)c2ccc3cccnc3c2O)c1 (configuration not stated)", "EC50", "12 µM"),
    ("NC1=NC[C@@H](Cc2ccc(O)cc2)N1CCCCC1CCCCC1", "EC50", "5.45 µM"),
    ("COc1cccc(/C=N/Nc2ncc(C(F)(F)F)cc2Cl)c1O", "EC50", "0.97 µM"),
    ("C#CCN1C(=O)C(O)(CC(=O)c2ccc(OC)c(OC)c2)c2ccccc21 (configuration not stated)", "EC50", "30.5 µM"),
    ("CCCCCCCCCCOC(=O)C[N+](C)(C)C/C=C(/C)Cl", "EC50", "8.56 µM"),
    ("Nc1c(Cl)ncnc1N/N=C/c1ccccn1", "EC50", "0.47 µM"),
    ("COc1ccc(CCNC(=S)Nc2cccc3ccccc23)cc1", "EC50", "31.5 µM"),
    ("COc1ccc(/C=N/Nc2cc(C)nc3ccccc23)cc1", "EC50", "7.59 µM"),
    ("Cc1[nH]c2ccccc2c1C1=NNC(=Nc2ccc(F)cc2)SC1", "EC50", "12.6 µM"),
    ("Oc1c(C(c2ccccn2)N2CCOCC2)ccc2cccnc12 (configuration not stated)", "EC50", "13.8 µM"),
    ("COc1ccc(/C=C/C(=O)NC(=S)NNC(=O)c2cnccn2)cc1", "EC50", "2.02 µM"),
]
